test system: RXF 393 renal; assay: NCI tumour cell line growth inhibition, 48 h
Quantity measured: log10 of TGI (log10 of the value in µM)

Compound	log10 of TGI
OCCOc1ccc(-c2cc(-c3ccccn3)nc(-c3ccccn3)c2)cc1	-0.07
CC1CC2C3CC(F)C4=CC(=O)C=CC4(C)C3(F)C(O)CC2(C)C1(O)C(=O)COC(=O)C(C)(C)C (stereo not drawn)	1.88
Cn1cnc([N+](=O)[O-])c1Sc1nc2cc(Cl)c(F)cc2[nH]1	1.00
CC1=C([Se]CC(OC(=O)[C@@H](CSSC(C)(C)C)NC(=O)OC(C)(C)C)C(=O)NC(C)(C)C)C(=O)c2ccccc2C1=O (stereo partly drawn)	0.45
N#Cc1cccc(N2C(=O)c3c(c(-c4ccccc4)c(-c4ccc(Sc5ccc(-c6c(-c7ccccc7)c7c(c(-c8ccccc8)c6-c6ccccc6)C(=O)N(c6cccc(C#N)c6)C7=O)cc5)cc4)c(-c4ccccc4)c3-c3ccccc3)C2=O)c1	1.77

---

# maps each entry to its TGI
tested on: MCF7 breast; test: NCI tumour cell line growth inhibition, 48 h
Quantity measured: TGI

> print(dat)
                                    compound  target.entity  quantity.measured  experimental.result
 1              Cc1ccc(C)n1-c1ccccc1C1SCCCS1    MCF7 breast                TGI             > 100 µM
 2  COc1cccc([C@H]2CC(=O)c3cc4c(cc3N2)OCO4)c1    MCF7 breast                TGI             > 100 µM
 3  COc1cc(/C=C2/SC(c3ccccc3)N(c3ccc(NC(C)=O)cc3)C2=O)cc(OC)c1OC (configuration not stated)    MCF7 breast                TGI             > 100 µM
 4  CCOC(=O)c1ccc(N=NN(C)C(=O)C(C)N)cc1 (configuration not stated)    MCF7 breast                TGI             > 100 µM
 5  C=CCC1(O)c2ccccc2C(=O)c2c(O)ccc(O)c21 (configuration not stated)    MCF7 breast                TGI              26.3 µM
 6        O=c1c2ccccc2oc2nc3n(c(=O)c12)CCCS3    MCF7 breast                TGI             > 100 µM
 7  COc1ccc2oc(=N)c(C(=O)Nc3cccc4ccccc34)cc2c1    MCF7 breast                TGI              63.9 µM
 8              O=C(c1ccc2ccccc2c1O)N1CCCCC1    MCF7 breast                TGI             > 100 µM
 9  COC(=O)N1CC2(CO)C3CC=C(C(=O)Nc4ccccc4Br)C2C1C3Br (configuration not stated)    MCF7 breast                TGI              > 50 µM
10  O=P([O-])(O)OP(=O)([O-])O.[NH-][C@H]1CCCC[C@@H]1[NH-].[OH-].[OH-].[Pt+4]    MCF7 breast                TGI             > 100 µM
11  NS(=O)(=O)c1ccc(NC(=O)c2ccc(NC3=C(Cl)C(=O)N(Cc4ccccc4)C3=O)cc2)cc1    MCF7 breast                TGI             > 100 µM
12  O=C1c2ccccc2C(=O)N1n1c(Cc2ccccc2)n[nH]c1=O    MCF7 breast                TGI             > 100 µM
13  COc1c2cc([N+](=O)[O-])cc1CNC(=O)CN1CCOCCOCCN(CCOCCOCC1)CC(=O)NC2    MCF7 breast                TGI             > 100 µM
14                           CC(C)=CCN=C(N)N    MCF7 breast                TGI             > 100 µM
15            C1=C\SS/C=C\SS/C=C\SS/C=C\SS/1    MCF7 breast                TGI             > 100 µM
16        O=C1c2c(F)c(F)c(F)c(F)c2SC2=NCCN12    MCF7 breast                TGI              23.5 µM
17  O=C1NC(N/N=C\C(O)C(O)C(O)CO)=N/C1=C/c1ccccc1 (configuration not stated)    MCF7 breast                TGI             > 100 µM
18  CC(=O)C1=C(O)C=C2Oc3c(C(=O)/C=C/c4cc(C(F)(F)F)cc(C(F)(F)F)c4)c(O)c(C)c(O)c3[C@]2(C)C1=O    MCF7 breast                TGI               1.7 µM
19  CC1=NN(C(=O)CSc2nnc(SCC(=O)N3N=C(C)CC3(O)c3ccccc3)s2)C(O)(c2ccccc2)C1 (configuration not stated)    MCF7 breast                TGI             > 100 µM
20  c1ccc(C2=NC3(CCCCC3)N(c3nc4ccccc4s3)N2)nc1    MCF7 breast                TGI             > 100 µM
21  COc1cccc(C2CC(c3cc(OC)c(OC)c(OC)c3)=NN2)c1 (configuration not stated)    MCF7 breast                TGI              26.1 µM
22  O=C1N[C@H]2c3c(Cl)sc(Cl)c3/C(=N/O)[C@H]2O1    MCF7 breast                TGI             > 100 µM
